The measured values listed here are drawn from ChEMBL document CHEMBL1151555.

Biological target: UniProt:P22303
Sequence (P22303 whole entry): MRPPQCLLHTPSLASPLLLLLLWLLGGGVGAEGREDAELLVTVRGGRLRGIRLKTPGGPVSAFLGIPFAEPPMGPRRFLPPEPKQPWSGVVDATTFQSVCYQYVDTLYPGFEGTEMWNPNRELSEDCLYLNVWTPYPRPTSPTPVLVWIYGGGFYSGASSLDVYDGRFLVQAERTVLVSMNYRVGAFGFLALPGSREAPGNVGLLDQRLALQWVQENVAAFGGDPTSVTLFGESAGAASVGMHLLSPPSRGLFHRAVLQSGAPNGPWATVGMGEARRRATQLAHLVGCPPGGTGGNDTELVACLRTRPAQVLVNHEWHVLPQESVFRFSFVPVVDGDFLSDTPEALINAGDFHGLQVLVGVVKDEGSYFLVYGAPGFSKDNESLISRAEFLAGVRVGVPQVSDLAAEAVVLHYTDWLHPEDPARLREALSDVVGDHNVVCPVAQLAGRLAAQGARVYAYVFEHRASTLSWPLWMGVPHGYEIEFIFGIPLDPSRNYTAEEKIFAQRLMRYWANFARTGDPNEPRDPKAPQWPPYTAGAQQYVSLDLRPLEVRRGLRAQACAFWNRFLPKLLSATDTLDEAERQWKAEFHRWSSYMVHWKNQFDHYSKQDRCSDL
Test: Concentration required to inhibit acetylcholinesterase isolated from human erythrocytes
Could you please report measured IC50 for the items listed next?
Please state the number and follow it with the unit.

Problem: What value of IC50 has been recorded for this entry: CCCCCCNC(=O)Oc1ccc2c(c1)[C@]1(C)CCN(CC)[C@@H]1C2
Result: 20 nM

Problem: What value of IC50 has been recorded for this entry: CCCCCCNC(=O)Oc1ccc2c(c1)[C@@]1(C)CCN(CC)[C@H]1C2
Result: 233 nM
